- Measured on: T1, soluble recombinant human IL-1RI (corresponding to the extracellular domain of IL-1RI) (human, UniProt P14778 18-336)
- T1 construct: extracellular domain
- T1 sequence (looked up): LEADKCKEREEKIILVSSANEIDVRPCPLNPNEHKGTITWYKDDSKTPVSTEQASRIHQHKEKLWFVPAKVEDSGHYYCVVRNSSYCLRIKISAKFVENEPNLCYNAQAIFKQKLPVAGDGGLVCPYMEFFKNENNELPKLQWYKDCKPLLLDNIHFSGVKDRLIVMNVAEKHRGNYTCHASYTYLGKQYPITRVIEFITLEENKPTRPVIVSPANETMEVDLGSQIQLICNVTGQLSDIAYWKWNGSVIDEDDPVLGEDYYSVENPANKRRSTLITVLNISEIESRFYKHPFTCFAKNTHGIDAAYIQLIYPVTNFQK
- Experiment notes: SPR (Reichert SR7000DC), soluble recombinant human IL-1RI, PBS with 0.005% Tween 20
Recorded measurements of kon, one per entry
The reply should contain only the number, in M⁻¹ s⁻¹.

Can you share its kon? I mean this binder: P01 (designed binder, Expressed in E. coli; In the cell assay, supernatants or lysates containing P01 were used; also called chimeric cytokine domain P01) APVRSLAFRIWDVNQKTFYLRNNQLVAGYLQGPNVNLEEKIDVSFVQGEESNDKIPVALGIHGGKMCLSCVKSGDETRLQLEAVDPKNYPKKKMDKRFAFIRSDSGPTTSFESAACPGWFLCTAMEADQPVSLTNMPDEGVMVTKFYMQFVSS
49300

Can you share its kon? I mean this binder: P03 (designed binder, Expressed in E. coli; also called chimeric cytokine domain P03) APVRSLAFRIWDVNQKTFYLRNNQLVAGYLQGPNVNLEEKFSMSFVQGEESNDKIPVALGLKEKNLYLSCVLKDDKPTLQLESVDPKNYPKKKMEKRFVFIRSDSGPTTSFESAACPGWFLCTAMEADQPVSLTNMPDEGVMVTKFTMQFVSS
4.1e+06

Could you now look at the following binder, please?
Can you share its kon? I mean this binder: P05 (designed binder, Expressed in E. coli; also called EBI-005; chimeric cytokine domain P05) APVRSLNCRIWDVNQKTFYLRNNQLVAGYLQGPNVNLEEKFSMSFVQGEESNDKIPVALGLKEKNLYLSCVLKDDKPTLQLESVDPKNYPKKKMEKRFVFNKIEINNKLEFESAQFPNWFLCTAMEADQPVSLTNMPDEGVMVTKFYMQFVSS
3.47e+06
